- SYSTEM_UNDER_TEST: TcCAT1.1 (Trypanosoma cruzi, UniProt A0A0H4FPU8)
- Construct: gene C3747_66g20; full-length ORF, untagged, pYES2, expressed in S. cerevisiae HSC100-3C (can1 gap1 lyp1); 10 predicted transmembrane helices
- Sequence (A0A0H4FPU8 1-448): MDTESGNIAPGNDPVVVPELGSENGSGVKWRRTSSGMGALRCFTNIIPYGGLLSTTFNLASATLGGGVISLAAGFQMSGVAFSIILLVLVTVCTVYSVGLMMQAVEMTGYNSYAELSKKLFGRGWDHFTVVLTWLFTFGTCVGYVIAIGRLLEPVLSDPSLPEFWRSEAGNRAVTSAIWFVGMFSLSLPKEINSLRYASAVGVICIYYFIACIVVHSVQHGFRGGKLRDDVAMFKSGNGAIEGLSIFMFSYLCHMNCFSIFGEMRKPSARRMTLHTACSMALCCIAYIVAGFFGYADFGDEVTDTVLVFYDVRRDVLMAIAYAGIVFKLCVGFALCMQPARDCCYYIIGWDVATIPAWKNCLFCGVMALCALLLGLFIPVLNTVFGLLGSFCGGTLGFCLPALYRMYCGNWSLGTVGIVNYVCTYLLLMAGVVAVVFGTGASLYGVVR
- ASSAY_SUMMARY: competition of [3H]-arginine uptake in transformed S. cerevisiae
- Assay type: cell-based
- CONDITION_LABEL: 1000 µM; 10 µM [3H]-arginine, 1 mM competitor, 30 min, room temperature
Please use condition met for [^3H]-Arginine uptake(%) under 70% and condition not met for everything else, ties included.

• CC(C)C[C@H](N)C(=O)O [leucine] = condition met
• N[C@@H](Cc1cnc[nH]1)C(=O)O [histidine] = condition met
• N=C(N)NCCCC[C@H](N)C(=O)O [homoarginine] = condition met
• NCCCNCCCCNCCCN [spermine] = condition met
• NC(=O)CC[C@H](N)C(=O)O [glutamine] = condition not met
• NC(=O)C[C@H](N)C(=O)O [asparagine] = condition not met
• NCCCC[C@H](N)C(=O)O [lysine] = condition not met
• O=C(O)[C@@H]1CCCN1 [proline] = condition not met
